# Study System: gastrin (Rattus norvegicus)
# Construct: The stomach was lowered into a jacketed organ bath containing 40 ml of buffered solution; from tissue; host or cells: isolated perfused whole stomach of immature rats (ca. 21 days old)
# Sequence (P30553 1-452): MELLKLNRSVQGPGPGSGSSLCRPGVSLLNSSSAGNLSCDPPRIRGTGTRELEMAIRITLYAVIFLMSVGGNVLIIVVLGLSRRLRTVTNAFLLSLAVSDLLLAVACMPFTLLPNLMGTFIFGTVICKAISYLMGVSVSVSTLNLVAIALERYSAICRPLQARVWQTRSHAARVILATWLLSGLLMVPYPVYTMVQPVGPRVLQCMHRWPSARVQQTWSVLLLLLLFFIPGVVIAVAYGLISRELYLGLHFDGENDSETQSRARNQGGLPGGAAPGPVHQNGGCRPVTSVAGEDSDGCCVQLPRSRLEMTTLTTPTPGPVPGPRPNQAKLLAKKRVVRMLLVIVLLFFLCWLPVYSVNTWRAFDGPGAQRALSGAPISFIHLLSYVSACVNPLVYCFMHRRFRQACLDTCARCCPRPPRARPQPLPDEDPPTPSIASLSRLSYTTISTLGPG
# Assay Text: gastrin antagonist activity in an immature rat stomach assay (pentagastrin-stimulated acid secretion)
# Recorded Conditions: cumulative pentagastrin dose-response curves after 60 min with drug
Measured Property: Gastrin pKB

Problem: Return the recorded Gastrin pKB value; entry: `CN(O)C(=O)c1cc(NC(=O)[C@H](Cc2ccccc2)NC(=O)c2cc3cc[nH]c3cc2C(=O)NCC23CC4CC(CC(C4)C2)C3)cc(C(=O)N(C)O)c1`
Result: 7.8

Problem: Please indicate Gastrin pKB recorded for `O=C(NCC12CC3CC(CC(C3)C1)C2)c1cc2[nH]ccc2cc1C(=O)N[C@@H](Cc1ccccc1)C(=O)Nc1cc(NS(=O)(=O)C(F)(F)F)cc(NS(=O)(=O)C(F)(F)F)c1`
Result: 7.7

Problem: Answer with the recorded Gastrin pKB of `COC(=O)c1cc(NC(=O)[C@H](Cc2ccccc2)NC(=O)c2cc3ccoc3cc2C(=O)NCC23CC4CC(CC(C4)C2)C3)cc(C(=O)OC)c1` only.
Result: 6.8

Data provenance: patent US5795907A
